test: BSK_3C_TissueFactor: BioMAP Diversity Plus: 3C Assay for Tissue Factor Biomarker Activity (AID 2282997)
condition_context: BioMAP 3C HUVEC, tissue factor biomarker readout; actives raise or lower the signal
Calls of active or inactive are those of the source. How the source made its calls: active means hit-call score of the fitted dose curve at least 0.9, where 1 is the maximum; inactive means score below 0.9.
Response enum: t for active, f for inactive

>>> label_value("Cc1nn(C)c(Oc2ccccc2)c1C=NOCc1ccc(C(=O)OC(C)(C)C)cc1")
"f"
>>> label_value("Oc1ccc(C(c2ccc(O)cc2)C(Cl)(Cl)Cl)cc1")
"t"
>>> label_value("CCOC(=O)C(C)Oc1ccc(Oc2cnc3cc(Cl)ccc3n2)cc1 (stereo unspecified)")
"f"
>>> label_value("CCN(CC)C(=O)c1cccc(C)c1")
"f"
>>> label_value("CCOC(=O)[C@H](C)Oc1ccc(Oc2nc3ccc(Cl)cc3o2)cc1")
"f"

Please find the next compound below.
Exercise: Just curious, what result did CCCOC(=O)NCCCN(C)C get here?
Key: f
